Tested on: ATP;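 further: ATP exposure 15 min at 22 °C before imaging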
measurementNotes: switch fluorescence ratio, 500 uM ATP over buffer (Cy3 cluster intensity, sum of 5 cycles each) (fold (ratio)); higher = stronger signal-on switching upon ATP binding; sequences stand for … in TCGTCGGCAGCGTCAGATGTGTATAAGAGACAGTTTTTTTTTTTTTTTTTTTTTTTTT…TC
runConditions: aptamer strand: ATP DNA aptamer (quencher-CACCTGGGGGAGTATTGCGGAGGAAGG + anchor), 100 nM annealed; ATP concentration: 500 uM
valueType: switch fluorescence ratio
Number only, no unit.

Query string: State the recorded switch fluorescence ratio for this entry: TGGTCCTCCG
Result string: 1.87

Query string: Return reported switch fluorescence ratio; argument: GGGGGCTCTG
Result string: 0.999

Query string: For TAAAGATAGC , what is its reported switch fluorescence ratio?
Result string: 1.02

Query string: Need switch fluorescence ratio of TTAGGTTGGT , thanks.
Result string: 1

Query string: I would be grateful if you could share the reported switch fluorescence ratio for GATGGTAGTT .
Result string: 1.01

Query string: Which switch fluorescence ratio reading was recorded for the sequence AACGATAAAT ?
Result string: 1.03

Query string: Using the record for CTAAGGGGCA , report its switch fluorescence ratio.
Result string: 1

Query string: Requested read-out: switch fluorescence ratio. Entry: CAGCGTCCCT
Result string: 1.07

Query string: Please report the recorded switch fluorescence ratio for ATCTGCTCTT .
Result string: 1.01

Query string: Quick one: switch fluorescence ratio for CGGGGGATTA ?
Result string: 1.02

Query string: Could you tell me which switch fluorescence ratio is on file for GGGGGCCGCT ?
Result string: 1.02

Query string: Given TGGATTTTCA , state its recorded switch fluorescence ratio.
Result string: 0.989

Query string: Returns the measured switch fluorescence ratio for the input sequence. Input: AACAGTTTGT
Result string: 1

Query string: Requested field: switch fluorescence ratio. Item: AATATGGTTT
Result string: 0.966

Query string: Reported switch fluorescence ratio for CAGATATTAC : what is it?
Result string: 1.06

Query string: Reported switch fluorescence ratio, sequence ATTCGATATC : ____
Result string: 1.03

Query string: So what does the record say about switch fluorescence ratio for TAAAGCGGTG ?
Result string: 0.992

Query string: # switch fluorescence ratio lookup, item GAATTGGTTT
Result string: 0.999

Query string: Which switch fluorescence ratio is listed for TGACTTGTGC ?
Result string: 0.976

Query string: Would you kindly share the measured switch fluorescence ratio for ACACTACGTC ?
Result string: 1.51

Query string: Which switch fluorescence ratio reading was recorded for the sequence TAGTTCTGTT ?
Result string: 0.983

Query string: # lookup: switch fluorescence ratio of TTTGGCGAAC
Result string: 1.02

Query string: Query: switch fluorescence ratio; subject: GAGGAGACGT
Result string: 1.03

Query string: // switch fluorescence ratio lookup, key: GGGGCCCCTC
Result string: 1.04

Query string: Form field: reported switch fluorescence ratio of GGACAAACTC
Result string: 1.04

Query string: For the sequence shown here, GCATGAAGGT , give the reported switch fluorescence ratio.
Result string: 1

Query string: Which switch fluorescence ratio value is on record for TATGGATCGC ?
Result string: 1.01

Query string: Using the record for CTATGGGTTT , report its switch fluorescence ratio.
Result string: 1.02

Query string: I would be grateful if you could share the reported switch fluorescence ratio for TACCTGGTTA .
Result string: 0.999

Query string: Can you share its switch fluorescence ratio? I mean this sequence: ATGAAAAGTT
Result string: 0.993

Query string: Consider the sequence shown here: AGGGAGAGTC What is its recorded switch fluorescence ratio?
Result string: 1.04

Query string: Would you mind telling me what switch fluorescence ratio value was observed for GCGTCCACCA ?
Result string: 1.03

Origin of the recorded values: the supplement of paper PMC10126150
